- subject.of.test: T1, rat PD-L1 (Sino Biological, Cat #80450-R08H) (rat, UniProt D4AE25 19-239)
- T1 construct: not shown: The vendor's polyhistidine tag
- assay.info: ELISA
experimental.endpoint: binding result

| binder | value.reported |
| --- | --- |
| 28B3 (antibody, human IgG1, V domains shown) VH: QSVEESGGRLVTPGTPLTLSCTASGFSLSSYYMIWVRQAPGKGLEYIGYVYTGSGNTWYASWAKGRFAISKASTTVDLMITSPTTEDTATYFCASGADGVYDWGWDIWGPGTLVTVSL VL: DIVMTQTPASVEAAVGDTVTIKCQASQSIYSLLAWYQQKPGQRPKLLIAGASNLESGVPSRFSGSGSGTEYTLTISALECADAATYYCQNNYDSGRIYGLAFGGGTEVVVK | no binding |
| 62E6 (antibody, human IgG1, V domains shown) VH: QEQLEESGGDLVKPEGSLTLTCTASGFSFSGDYYMSWVRQAPGKGLEWIASIYTGSLNIYYATWAKGRFTISLTSSTTVTLQMTSLTAADTATYFCARRNKNADYGHFDLWGPGTLVTVSS VL: YDMTQTPASVEVAVGGTVTIKCQASQSINDRLAWYQQKPRQPPKLLIYGASTLASGVPSRFKGSGSGTEFTLTISDLECVDAATYYCQQGWTVSSLDNAFGGGTEVVAK | no binding |
